Where do the numbers come from? From paper PMC11079024.

Field: activity at 0.005 µM. Provide a value for each of the compounds that follow.
target: B. taurus (heart) complex I (Bos taurus, UniProt P03887+P17694+P42026); assay: biochemical; type: biochemical; settings: Dose 0.005 µM; read-out: B. taurus mitochondrial complex I activity
Sequence (P03887 whole entry): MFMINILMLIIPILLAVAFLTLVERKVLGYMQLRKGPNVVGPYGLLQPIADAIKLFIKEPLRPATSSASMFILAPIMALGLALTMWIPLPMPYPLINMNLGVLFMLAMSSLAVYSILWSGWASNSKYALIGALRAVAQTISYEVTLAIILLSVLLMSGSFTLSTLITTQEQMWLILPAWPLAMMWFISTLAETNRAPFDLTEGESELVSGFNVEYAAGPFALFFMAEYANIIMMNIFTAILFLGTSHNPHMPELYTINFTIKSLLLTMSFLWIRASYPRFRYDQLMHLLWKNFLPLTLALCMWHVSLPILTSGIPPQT
Sequence (P17694 34-463): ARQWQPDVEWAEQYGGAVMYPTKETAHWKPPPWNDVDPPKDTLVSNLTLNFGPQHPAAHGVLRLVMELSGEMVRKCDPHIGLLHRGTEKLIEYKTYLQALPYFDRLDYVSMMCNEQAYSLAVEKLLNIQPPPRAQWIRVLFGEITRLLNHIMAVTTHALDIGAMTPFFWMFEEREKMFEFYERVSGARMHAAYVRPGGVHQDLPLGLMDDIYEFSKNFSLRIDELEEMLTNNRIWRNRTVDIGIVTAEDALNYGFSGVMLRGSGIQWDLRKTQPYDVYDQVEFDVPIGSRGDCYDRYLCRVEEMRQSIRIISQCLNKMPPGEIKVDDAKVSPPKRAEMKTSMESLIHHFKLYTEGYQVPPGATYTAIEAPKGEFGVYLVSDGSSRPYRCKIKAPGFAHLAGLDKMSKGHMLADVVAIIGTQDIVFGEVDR
Sequence (P42026 38-216): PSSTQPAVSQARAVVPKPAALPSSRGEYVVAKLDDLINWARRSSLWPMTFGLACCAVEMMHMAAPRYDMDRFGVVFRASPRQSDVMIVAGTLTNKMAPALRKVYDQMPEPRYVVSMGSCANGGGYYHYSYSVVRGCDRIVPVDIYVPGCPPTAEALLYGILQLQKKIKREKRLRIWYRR
Give the value in % but do not write % after it.

# lookup: activity at 0.005 µM of FC(F)(F)c1cccc(OCCCCn2cnc3ccccc32)c1 [Compound 7925004]
89.8

Could you share which activity at 0.005 µM value was measured for CCCOc1ccc(Cn2cnc3ccccc32)cc1 [Compound 7355741] ?
102

Param item = Cc1ccccc1OCCCCn1cnc2ccccc21 [Compound 7732524] ; retrieve measured activity at 0.005 µM.
78.2

Record request: activity at 0.005 µM value, item Cc1ccc(OCCn2cnc3ccccc32)c(C)c1 [Compound 7706808]
95.6

Endpoint output: activity at 0.005 µM of Cc1cccc(OCCn2c(C)nc3ccccc32)c1 [Compound 6285199] . Value?
95.1

What activity at 0.005 µM value was documented for this compound, Brc1ccccc1OCCCCn1cnc2ccccc21 [Compound 7924576] ?
101

Return reported activity at 0.005 µM; argument: Cc1ccc(SCCCCn2cnc3ccccc32)cc1 [Compound 7925333]
83.9

Suppose we examine the compound CCc1cc(OCCn2cnc3ccccc32)ccc1Cl [Compound 7925288] ; what activity at 0.005 µM value has been reported?
84.5

Which measured activity at 0.005 µM value corresponds to Cc1nc2ccccc2n1Cc1ccc(Cl)c(Cl)c1 [Compound 5655567] ?
95.5

Bench note: what activity at 0.005 µM did Cc1ccc(SCCCn2cnc3ccccc32)cc1 [Compound 7926035] show?
102

* * *

system: L1 wild-type C. elegans; test: 15-hour motility assay with drug alone (no KCN); assay type: cell-based, Caenorhabditis elegans; details: without KCN, 3.1 µM, 15-hour, mean of replicates
endpoint: Value relative to DMSO control, drug alone (without KCN), Mean
Answer with the value's number alone.

Under L1 wild-type C. elegans: Value relative to DMSO control, drug alone (without KCN), Mean value of O=C(Nc1ccc(Oc2ccc(Cl)cc2)c(Cl)c1)c1cc(I)cc(I)c1O [Rafoxanide] ?
0.954

API: value(readout= Value relative to DMSO control, drug alone (without KCN), Mean, system= L1 wild-type C. elegans, query= O=C(Nc1ccc([N+](=O)[O-])cc1Cl)c1cc(Cl)ccc1O [Niclosamide] )
0.892

L1 wild-type C. elegans / Value relative to DMSO control, drug alone (without KCN), Mean / O=C(Nc1cc(Cl)cc(Cl)c1O)c1c(O)c(Cl)cc(Cl)c1Cl [Oxyclozanide] : value?
0.927

Give Value relative to DMSO control, drug alone (without KCN), Mean (L1 wild-type C. elegans) of the following compound: Cc1cc(C(C#N)c2ccc(Cl)cc2)c(Cl)cc1NC(=O)c1cc(I)cc(I)c1O (stereo not shown)
0.969

* * *

biological target: C. elegans (N2) complex I (NADH:ubiquinone oxidoreductase) (Caenorhabditis elegans, UniProt P24887+Q93873+Q94360); test: biochemical; type: biochemical; settings: dose 0.125 µM; wild-type C. elegans; mean of replicates; read-out: in vitro complex I activity relative to solvent control, Mean
Sequence (Q94360 17-199): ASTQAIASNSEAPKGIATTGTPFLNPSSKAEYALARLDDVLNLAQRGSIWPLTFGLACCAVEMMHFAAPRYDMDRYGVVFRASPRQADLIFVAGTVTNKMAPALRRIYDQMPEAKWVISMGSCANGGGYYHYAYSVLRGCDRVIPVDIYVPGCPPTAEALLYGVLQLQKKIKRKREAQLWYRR
Sequence (P24887 whole entry): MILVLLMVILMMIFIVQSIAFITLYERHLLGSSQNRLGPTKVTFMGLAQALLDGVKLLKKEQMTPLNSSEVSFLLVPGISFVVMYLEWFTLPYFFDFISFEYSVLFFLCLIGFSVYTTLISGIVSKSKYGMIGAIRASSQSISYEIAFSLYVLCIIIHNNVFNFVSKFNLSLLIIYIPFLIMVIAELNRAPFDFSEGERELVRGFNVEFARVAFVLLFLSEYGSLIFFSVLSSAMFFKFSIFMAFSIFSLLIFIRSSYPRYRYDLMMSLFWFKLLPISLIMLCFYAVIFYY
Sequence (Q93873 31-482): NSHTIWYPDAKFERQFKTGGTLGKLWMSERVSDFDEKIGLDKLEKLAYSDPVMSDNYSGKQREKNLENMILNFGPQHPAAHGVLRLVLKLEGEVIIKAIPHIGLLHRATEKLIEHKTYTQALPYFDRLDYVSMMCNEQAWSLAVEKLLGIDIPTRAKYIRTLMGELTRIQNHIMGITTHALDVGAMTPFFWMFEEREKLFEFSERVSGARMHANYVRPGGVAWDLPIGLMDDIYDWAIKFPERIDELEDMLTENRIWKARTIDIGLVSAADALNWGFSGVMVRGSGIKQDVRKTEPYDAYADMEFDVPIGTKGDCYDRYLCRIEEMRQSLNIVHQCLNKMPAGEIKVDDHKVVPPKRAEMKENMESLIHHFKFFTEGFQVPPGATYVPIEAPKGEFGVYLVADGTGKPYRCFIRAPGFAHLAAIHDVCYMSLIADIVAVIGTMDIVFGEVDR
Values of remaining activity at 0.125 µM strictly less than 30% map to condition met, and values of at least 30% map to condition not met.

Hello, is remaining activity at 0.125 µM of the following molecule strictly smaller than 30%? CC(C)(C)c1ccc(CCOc2ncnc3ccccc23)cc1 [Fenazaquin, reference compound]
condition met

Please state whether remaining activity at 0.125 µM is below 30% for COC(=O)Nc1nc2ccc(Sc3ccccc3)cc2[nH]1 [fenbendazole, reference compound]
condition not met

Is remaining activity at 0.125 µM strictly under 30% for the entry Cc1nc2ccccc2n1Cc1ccc(Cl)cc1 ?
condition not met

Given the entry C=C(C)[C@H]1Cc2c(ccc3c2O[C@@H]2COc4cc(OC)c(OC)cc4[C@@H]2C3=O)O1 [Rotenone, reference compound] , would its reported remaining activity at 0.125 µM be below 30%?
condition met

Please state whether remaining activity at 0.125 µM is below 30% for Cc1ccccc1OCCCCn1cnc2ccccc21
condition not met

* * *

Molecular target: B. taurus (heart) complex I (Bos taurus, UniProt P03887+P17694+P42026)
Test: biochemical
Assay type: biochemical
Conditions: B. taurus; dose 0.005 µM; Mean of replicates; read-out: Complex I activity, dose-response data
Method: Six 8–10-week-old C57Bl/6 female mice (Charles River) were freshly dissected, and their livers and hearts collected into separate 1.5 mL microcentrifuge tubes. Organs were flash-frozen in liquid nitrogen and stored at −80 °C prior to use. […] The enzymatic activities of individual ETC complexes (I-IV) were assessed spectrophotometrically in isolated mitochondria using a Varioskan LUX Multimode plate reader (ThermoFisher Scientific). […]
So I've got a bunch of molecules here, and I need their activity at 0.005 µM values.
Give the value, in units of %, as a plain number.

Look up activity at 0.005 µM for this molecule: COc1cc2c(cc1OC)C(/C=C/c1ccc(N(C)C)cc1)=NCC2
93.7

What value of activity at 0.005 µM has been recorded for this entry: CC(C)Cc1ccc(C(C)c2nc3ccccc3n2C)cc1 (stereo not shown)
114

Record request: activity at 0.005 µM value, item COc1cc2c(cc1OC)C(c1ccc(-c3ccc(Cl)c(Cl)c3)o1)=NCC2
109

What activity at 0.005 µM value was documented for this molecule, COc1cc2c(cc1OC)C(C(C)c1ccc(CC(C)C)cc1)=NCC2 (stereo not shown) ?
95.2

* * *

molecular target: C. elegans (N2) complex I (NADH:ubiquinone oxidoreductase) (Caenorhabditis elegans, UniProt P24887+Q93873+Q94360); assay: biochemical; assay type: biochemical; details: in vitro complex I dose response on C. elegans mitochondria; average of at least two biological replicates; fit in R (DRC); read-out: IC50 C. elegans complex I
Give pIC50 for every item shown.
// scale note: pIC50 = -log10(conc_M); give the bare number

Look up pIC50 for this compound: Cc1ccc(OCCn2cnc3ccccc32)c(C)c1
5.84

Recorded pIC50 for Nc1nc2ccccc2n1Cc1ccc(Cl)cc1 , please?
6.33

What does the data say about its pIC50? Entry: Cc1nc2ccccc2n1Cc1ccc(F)cc1
6.03

Requested field: pIC50. Item: Cc1nc2ccccc2n1CCOc1ccccc1
5.24

Endpoint output: pIC50 of Cc1ccc2nc(C(C)c3ccc(CC(C)C)cc3)[nH]c2c1 (stereo not drawn) . Value?
6.04

Looking for the measured pIC50 of Cc1nc2ccccc2n1Cc1ccccc1Cl , can you help?
6.25

# lookup: pIC50 of Clc1ccc(SCCCCn2cnc3ccccc32)cc1
6.02

Recorded pIC50 for Cc1ccc(Cn2c(C(C)C)nc3ccccc32)cc1 , please?
5.03

Entry under review: Cc1ccc(Cn2c(C)nc3ccccc32)cc1 . Reported pIC50?
6.74

Please give the measured pIC50 for this compound: Cc1ccccc1OCCCCn1cnc2ccccc21
6.85

Please report the recorded pIC50 for Cc1nc2ccccc2n1Cc1ccc(Cl)cc1 .
6.96

Looking for the measured pIC50 of Nc1nc2ccccc2n1CCOc1ccc(Br)cc1 , can you help?
5.21

Dear colleague, I am looking for the recorded pIC50 of the following compound: Cc1ccc(OCCn2cnc3ccccc32)cc1
5.27

Look at this compound and give its reported pIC50. Clc1ccc(OCCn2cnc3ccccc32)c(Cl)c1
5.38

For CCc1ccc(OC(C)c2nc3ccccc3[nH]2)cc1 (stereo not drawn) , what is its reported pIC50?
4.15

So what does the record say about pIC50 for Cc1ccccc1OCCCn1c(C)nc2ccccc21 ?
5.93

Query (compound): Cc1cccc(OCCn2c(C)nc3ccccc32)c1 ; field requested: pIC50
6.08

pIC50 lookup needed for c1ccc2[nH]c(CSc3nc4ccccc4o3)nc2c1 , thanks.
4.71

Entry Cc1ccc(SCCCn2cnc3ccccc32)cc1 : reported pIC50 = ?
6.27

Requested field: pIC50. Item: C=CCn1c(C(C)c2ccc(CC(C)C)cc2)nc2ccccc21 (stereo not drawn)
5.64

Recorded pIC50 of Cc1nc2ccccc2n1CCOc1ccccc1Cl , please.
5.63

* * *

target: C. elegans (N2) complex I (NADH:ubiquinone oxidoreductase) (Caenorhabditis elegans, UniProt P24887+Q93873+Q94360); assay: biochemical; type: biochemical; details: dose 37.5 µM; wild-type C. elegans; mean of replicates; read-out: in vitro complex I activity relative to solvent control, Mean
Sorting guide: entries reporting remaining activity at 37.5 µM beneath 2% go in the True pile, the rest go in the False pile.

Does the reported remaining activity at 37.5 µM of CC(C)(C)c1ccc(CCOc2ncnc3ccccc23)cc1 [Fenazaquin, reference compound] stay below 2%?
True

Quick check: does C=C(C)[C@H]1Cc2c(ccc3c2O[C@@H]2COc4cc(OC)c(OC)cc4[C@@H]2C3=O)O1 [Rotenone, reference compound] have remaining activity at 37.5 µM under 2%?
False

Determine whether this molecule shows remaining activity at 37.5 µM lower than 2% (ties excluded): COC(=O)Nc1nc2ccc(Sc3ccccc3)cc2[nH]1 [fenbendazole, reference compound]
False

Strictly below 2%: is that where remaining activity at 37.5 µM of Cc1ccccc1OCCCCn1cnc2ccccc21 sits?
True

Here's an entry: Cc1nc2ccccc2n1Cc1ccc(Cl)cc1 . Is its remaining activity at 37.5 µM below 2%?
True
